- Test system: modified luciferase
- PROTOCOL TEXT: Luciferase expression in liver, lung, spleen and femur 6 hours after intravenous administration to mice
- Format: in vivo
- CONDITION NOTES: liver, 6 hours after intravenous 0.5 mpk, mice
I'd be grateful if you could share measured Total Flux, Liver for these entries.
No unit in the answer, please; the number alone is enough.

Asked: Test system modified luciferase; read-out Total Flux, Liver; what value for CCCCCCCCCOC(=O)CCCCCCCN(CCCCCCCC(=O)OC(CCCCCCCC)CCCCCCCC)C(C)CO (stereo not drawn) ?
Given back: 2.27E+09

Asked: Test system modified luciferase; read-out Total Flux, Liver; what value for CCCCCCCCCOC(=O)CCCCCCCN(CCO)CCCCCCCC(=O)OC(CC)CCCCCCCC (stereo not drawn) ?
Given back: 1.63E+08

Asked: Test system modified luciferase; read-out Total Flux, Liver; what value for CCCCCCCCC(C)OC(=O)CCCCCCCN(CCO)CCCCCCCOC(=O)C(CCCCCCCC)CCCCCCCC (stereo not drawn) ?
Given back: 1.65E+10

Asked: Test system modified luciferase; read-out Total Flux, Liver; what value for `CCCCCCCCCOC(=O)CCCCCCCN(CCO)CCCCCCCC(=O)N(CCCCCCCC)CCCCCCCC` ?
Given back: 3.75E+08

Asked: Test system modified luciferase; read-out Total Flux, Liver; what value for `CCCCC/C=C\C/C=C\CCCCCCCCN(CCO)CCCCCCCC(=O)OCCCCCCCCC` ?
Given back: 1.34E+08

Asked: Test system modified luciferase; read-out Total Flux, Liver; what value for `CCCCCCCCC(CCCCCCCC)OC(=O)CCCCCCCN(CCO)CCCCCC` ?
Given back: 5.84E+07

Asked: Test system modified luciferase; read-out Total Flux, Liver; what value for CCCCCCCCCOC(=O)CCCCCCCN(CCCCCCCC(=O)OC(CCCCCCCC)CCCCCCCC)CC(O)CO (stereo not drawn) ?
Given back: 2.24E+08

Asked: Test system modified luciferase; read-out Total Flux, Liver; what value for `CCCCCCCCCC(=O)OCCCCCCCN(CCO)CCCCCCCC(=O)OC(CCCCCCCC)CCCCCCCC` ?
Given back: 1.56E+10

Asked: Test system modified luciferase; read-out Total Flux, Liver; what value for `CCCCCCCCCOC(=O)CCCCCCCN(CCO)CCCCCCCCCC(CCCCCCCC)CCCCCCCC` ?
Given back: 1.18E+09

----------
- PROTOCOL TEXT: Encapsulation efficiency of RNA in nanoparticle compositions (RIBOGREEN assay)
- Assay type: physicochemical
- CONDITION NOTES: Table 1A; lipid:DSPC:cholesterol:PEG-DMG 50:10:38.5:1.5 mol %
Could you mark each record YES if its EE falls strictly under 90%, and NO if it equals or exceeds it?

Asked: Determine if `CCCCCCCCCOC(=O)CCCCCCCN(CCCCCCCC(=O)OC(CCCCCCCC)CCCCCCCC)CCCNc1c(NC)c(=O)c1=O` shows EE strictly lower than 90%.
Given back: NO

Asked: Determine if `CCCCCCCCCOC(=O)CCCCCCCN(CCO)CCCCCCCC(=O)OC(C)(C)C` shows EE strictly lower than 90%.
Given back: YES

Asked: Determine if CCCCCCCCC(CCCCCCCC)OC(=O)CCCCCCCN(CCO)CCCCCCCCC1CC1CCCCCCCC (centres unmarked) shows EE strictly lower than 90%.
Given back: NO

Asked: Determine if `CCCCCCCCCC(=O)OCCCCCCCN(CCO)CCCCCCCC(=O)OC(CCCCCCCC)CCCCCCCC` shows EE strictly lower than 90%.
Given back: YES

Asked: Determine if `CCCCCCCCC(CCCCCCCC)OC(=O)CCCCCCCN(CCO)CCCCCC` shows EE strictly lower than 90%.
Given back: YES

Asked: Determine if CCCCCCCCCOC(=O)C(C)CCCCCCN(CCO)CCCCCCCOC(=O)C(CCCCCCCC)CCCCCCCC (centres unmarked) shows EE strictly lower than 90%.
Given back: NO
